- tested_system: BLM642-1290 K1125A (human, UniProt P54132 642-1290, K1125A)
- Sequence (P54132 642-1290 K1125A): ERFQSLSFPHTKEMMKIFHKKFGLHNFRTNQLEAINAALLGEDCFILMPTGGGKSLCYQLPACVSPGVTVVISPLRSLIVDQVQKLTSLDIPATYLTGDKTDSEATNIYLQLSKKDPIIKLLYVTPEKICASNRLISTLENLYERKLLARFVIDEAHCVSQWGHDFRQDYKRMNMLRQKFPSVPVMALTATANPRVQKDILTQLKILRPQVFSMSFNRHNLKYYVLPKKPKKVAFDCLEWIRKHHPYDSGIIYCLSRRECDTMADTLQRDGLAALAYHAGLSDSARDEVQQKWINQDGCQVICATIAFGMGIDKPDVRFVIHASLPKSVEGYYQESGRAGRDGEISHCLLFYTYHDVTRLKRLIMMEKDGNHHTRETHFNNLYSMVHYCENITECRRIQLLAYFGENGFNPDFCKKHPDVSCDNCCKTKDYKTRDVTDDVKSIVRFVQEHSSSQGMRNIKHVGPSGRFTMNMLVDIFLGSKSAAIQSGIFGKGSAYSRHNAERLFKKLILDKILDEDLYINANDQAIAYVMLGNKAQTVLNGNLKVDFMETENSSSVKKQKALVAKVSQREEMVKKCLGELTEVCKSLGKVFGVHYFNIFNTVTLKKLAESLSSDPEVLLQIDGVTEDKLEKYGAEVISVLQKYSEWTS
- experimental_protocol: fluorescence anisotropy; 1 mM MgCl2, no ATP listed; 25 mM Tris-HCl pH 7.5 (last digit split in text), 100 mM NaCl, 1 mM MgCl2, 3 mM DTT, 5 nM DNA, 25 C, 5 min equilibration; Hill fit
- measurement_context: protein: recombinant; label: 3' fluorescein on F18; blunt
outcome_measure: Kd (nM)
Provide the reading as a plain figure in nM.

query: Answer with the recorded Kd for the binder listed here: F18/F18 bis dsDNA (18 bp) (dsDNA) DNA 1: GCCTCGCTGCCGTCGCCA DNA 2: TGGCGACGGCAGCGAGGC
result: 28.6
